experiment: Solubility at pH 9.0; assay type: physicochemical; settings: buffer
Binary classification by solubility, with 40 µg/mL as an inclusive lower bound for True; all other cases are False.

{"chemical.smiles": "Cc1cccc(C)c1-c1c(N)c(C(=O)c2ccc(F)cc2F)cc[n+]1[O-]", "discrete.label": "True"}
{"chemical.smiles": "COCCOc1ccc(-c2c(N)c(C(=O)c3ccc(F)cc3F)cc[n+]2[O-])c(C)c1", "discrete.label": "True"}
{"chemical.smiles": "COCCNC(=O)c1ccc(-c2c(N)c(C(=O)c3ccc(F)cc3F)cc[n+]2[O-])c(C)c1", "discrete.label": "True"}
{"chemical.smiles": "Cc1ccccc1-c1c(N)c(C(=O)c2ccc(F)cc2F)cc[n+]1[O-]", "discrete.label": "True"}
{"chemical.smiles": "Cc1cc(C(=O)O)ccc1-c1c(N)c(C(=O)c2ccc(F)cc2F)cc[n+]1[O-]", "discrete.label": "True"}
{"chemical.smiles": "Nc1c(C(=O)c2ccc(F)cc2F)cc[n+]([O-])c1-c1c(F)cccc1F", "discrete.label": "False"}
